Origin of the recorded values: patent US20260200925A1

# target.under.test: Recombinant KRAS-G12D (SEQ ID NO: 2) (Homo sapiens, UniProt P01116, G12D)
# Sequence (P01116 with tags, fused parts or gaps isoform P01116-2 G12D): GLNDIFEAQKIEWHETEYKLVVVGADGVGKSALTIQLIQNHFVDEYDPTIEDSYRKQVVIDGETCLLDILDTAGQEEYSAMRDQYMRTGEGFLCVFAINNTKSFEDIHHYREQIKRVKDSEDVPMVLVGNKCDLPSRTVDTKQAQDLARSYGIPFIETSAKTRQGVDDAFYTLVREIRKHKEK
# experiment.summary: SOS-catalyzed guanine nucleotide exchange (GNE) assay, KRAS-G12D
Record form. Attribute: pIC50. Fill in for each entry.
Numbers only, as −log10 of the molar value.

Worked examples follow.
| compound | pIC50 |
| --- | --- |
| CC1(O)CN(c2nc(OC[C@@]34CCCN3C[C@H](F)C4)nc3c(F)c(-c4cc(O)cc5cccc(Cl)c45)c(F)cc23)CCC1(F)F (stereo partly shown) | 6.01 |
| C#Cc1c(F)ccc2cccc(-c3c(F)cc4c(N5CCC[C@@](C)(O)C5)nc(OC[C@@]56CCCN5[C@H](COC(=O)N(C)C)CC6)nc4c3F)c12 | 7.64 |
| C#Cc1cccc2cc(O)cc(-c3c(F)cc4c(N5CCCC(O)(C(F)F)C5)nc(OC[C@@]56CCCN5C[C@H](F)C6)nc4c3F)c12 (stereo partly shown) | 7.89 |
| Cc1cc2[nH]ncc2c(-c2c(F)cc3c(N4CCC[C@H](O)CC4)nc(OC[C@@]45CCCN4C[C@H](F)C5)nc3c2F)c1C(F)(F)F | 6.76 |
| Oc1cc(-c2c(F)cc3c(N4CCCC(O)(C(F)(F)F)C4)nc(OC[C@@]45CCCN4C[C@H](F)C5)nc3c2F)c2c(Cl)cccc2c1 (single isomer, unassigned) | 6.07 |

Hi there! I need pIC50 for each item below, if you can.
1. CN(C)CC1(COc2nc(N3CCCC(C)(O)C3)c3cc(F)c(-c4cc(O)ccc4OC(F)(F)F)c(F)c3n2)CC1 (stereo not shown)
2. Oc1cc(-c2c(F)cc3c(N4CCCCC(O)C4)nc(OC[C@@]45CCCN4C[C@H](F)C5)nc3c2F)c2c(Cl)cccc2c1 (stereo partly shown)
3. C#Cc1cccc2cc(O)cc(-c3c(F)cc4c(N5CCCC(O)(CO)C5)nc(OC[C@@]56CCCN5C[C@H](F)C6)nc4c3F)c12 (stereo partly shown)
4. CC1CN(c2nc(OC[C@@]34CCCN3C[C@H](F)C4)nc3c(F)c(-c4cc(O)cc5cccc(Cl)c45)c(F)cc23)CC(C)(O)C1 (single isomer, unassigned)
5. C#Cc1cccc2cc(O)cc(-c3c(F)cc4c(N5CCC[C@@](C)(O)C5)nc(OC[C@@]56CCCN5C[C@H](F)C6)nc4c3F)c12
6. CN(C)C[C@@]1(COc2nc(N3CCC[C@@](C)(O)C3)c3cc(F)c(-c4cccc5ccc(F)c(Cl)c45)c(F)c3n2)CC1(F)F

1. 6.50
2. 6.55
3. 7.89
4. 6.79
5. 8.52
6. 5.93

Hi there! I need pIC50 for each item below, if you can.
1. CC1(O)CN(c2nc(OC[C@@]34CCCN3C[C@H](F)C4)nc3c(F)c(-c4cc(O)cc5cccc(Cl)c45)c(F)cc23)CCC1F (stereo partly shown)
2. C#Cc1cccc2cc(O)cc(-c3ncc4c(N5CCC[C@@](C)(O)C5)nc(OCC5(CN(C)C)CC5)nc4c3F)c12

7.23
9.00
